Test: NOD1 signaling inhibitors, primary screen, cell-based, luminescence, uHTS (AID 1578);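 also: HEK-293T reporter cells stimulated with the NOD1 agonist gamma-tri-DAP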
Conditions: NOD1-driven NF-kB luciferase reporter cells, at 4 µM, stronger effect = higher value
Hit rate of the full screen: of about 290,000 compounds, about 3,000 (1%) were called active. This is one part of a sample in which actives are shown more often than they occur.
outcome measure: inhibition (%)

# compound, outcome measure, quantitative result
data = [
    ("COc1ccc(OC/C(O)=C(\\C#N)c2nc3ccccc3[nH]2)cc1", "inhibition", -23.4),
    ("COC(=O)c1cn(-c2ccccc2)nc1-c1ccc(OC)cc1", "inhibition", 47.5),
    ("COc1ccc(/C(C)=N/OC/C(O)=C(\\C#N)c2nc3ccccc3[nH]2)cc1OC", "inhibition", 5.6),
    ("CC(C)(C)C1=C(C#N)C(c2cccnc2)C(C#N)=C(N)O1 (stereo not given)", "inhibition", 19.8),
    ("CC1(c2cccc([N+](=O)[O-])c2)CC(C)(C)N(C(=O)c2ccccc2)c2ccccc21 (stereo not given)", "inhibition", 82.6),
    ("Cc1ccc(C(C)C)c(OC/C(O)=C(\\C#N)c2nc3ccccc3[nH]2)c1", "inhibition", 36.3),
    ("CC1(c2cc([N+](=O)[O-])cc([N+](=O)[O-])c2)CC(C)(C)N(C(=O)c2ccccc2)c2ccccc21 (stereo not given)", "inhibition", 4.5),
    ("CN(CCC#N)C(=O)COC(=O)c1ccccc1C(=O)c1ccc(Cl)c([N+](=O)[O-])c1", "inhibition", 55.1),
    ("Cc1ccc(CNC(=O)C2CCN(c3nn4c(=O)cc(C)nc4s3)CC2)cc1", "inhibition", -23.9),
    ("COc1ccccc1N1CCN(C(=O)CN2C(=O)C3CCCCC3C2=O)CC1 (stereo not given)", "inhibition", -30.6),
]

====

Test: NOD1 signaling inhibitors, primary screen, cell-based, luminescence, uHTS (AID 1578);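 also: HEK-293T reporter cells stimulated with the NOD1 agonist gamma-tri-DAP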
Settings: NOD1-driven NF-kB luciferase reporter cells, at 4 µM
Among all 290,000 compounds or so, about 3,000 (1%) were called active. Cut-off read from the data, not from the text of the source: active = inhibition mostly above about 36% (no sharp cut-off); inactive = mostly below about 34%. Shown is part of a subset that was picked to be rich in actives.
Outcome codes: 1 = active, -1 = inactive

# smiles structure, assigned category
records = [
    ("COC(=O)Cc1ccc(NC(=O)c2ccc(NC(=O)c3ccco3)cc2)cc1", -1),
    ("Nc1cc(=O)[nH]c(SCc2ccccc2Cl)n1", -1),
    ("CC(=O)Nc1ccc(S(=O)(=O)N(C)c2ccccc2)cc1", -1),
    ("COc1ccccc1NC(=S)N(CCN1CCOCC1)Cc1ccccc1F", -1),
    ("NS(=O)(=O)c1cccc(NC(=O)CSc2nn(-c3ccccc3)c(=S)s2)c1", -1),
    ("Cc1cc(SCC(=O)c2cccs2)n2nc(C)c(-c3ccccc3)c2n1", -1),
    ("Cc1ccc(NC(=O)CSc2nn(-c3ccc(Cl)cc3)c(=S)s2)cc1S(=O)(=O)N(C)C", -1),
    ("Cc1cc(SCC(=O)c2cccs2)n2nc(C)c(-c3ccc(Cl)cc3)c2n1", 1),
    ("Cc1ccsc1/C=N/N1CCOCC1", -1),
    ("CCOc1ccc(N(C)c2ccc(/C=C3/SC(=S)NC3=O)cc2)cc1", -1),
    ("COc1ccc(CNC(=S)Nc2ccccc2-c2ccccc2)cc1", -1),
    ("Cc1nn2c(SCC(=O)c3cccs3)cc(C(C)(C)C)nc2c1-c1ccccc1", -1),
    ("COc1ccc(NC(=O)Cc2c(F)c(F)c(F)c(F)c2F)cc1OC", -1),
    ("Cc1ccc(C(=O)Nc2ccc(CC(=O)O)cc2)o1", -1),
    ("COC(=O)Cc1ccc(NC(=O)c2ccc(C(C)(C)C)cc2)cc1", 1),
    ("Cn1ncc2c(Nc3ccc(Cl)c(Cl)c3)ncnc21", -1),
    ("CCOC(=O)/C=C/C(=O)Nc1ccc(Oc2ccccc2)cc1", -1),
    ("CCOc1ccc(/C=C2\\SC(=S)NC2=O)cc1OC", -1),
    ("CCO[C@H]1OC(C(=O)O)=C[C@@H](c2ccc3c(c2)OCO3)[C@@H]1CCCO", -1),
    ("Fc1ccc(-c2noc(-c3ccc4c(c3)CCO4)n2)cc1", -1),
    ("CC(C)(C)c1ccc(C(=O)Nc2ccc(NC(=O)C(=O)O)cc2)o1", -1),
    ("COc1ccccc1OCCCOc1ccc(/C=C2\\SC(=O)NC2=O)cc1OC", -1),
    ("COC(=O)c1ccc(CSc2cc(C)c3ccccc3n2)o1", -1),
]
